Reference for the values: the supplement of paper PMC11417369

System: PfAP2-EXP AP2 domain (GST-tagged)
assay text: gcPBM binding intensity (ln(normalized median fluorescence intensity)); higher = stronger DNA binding
Over roughly 25,000 sequences, “ln(normalized median fluorescence intensity)” has its median near 8.6; the highest 2% begin near 10. The list comes from a sample in which the highest values are over-represented; it also holds close analogues and randomly drawn sequences.
outcome measure: gcPBM binding intensity (ln)
Returns: the value as a bare number; no unit string appended.

{"columns": ["seq", "gcPBM binding intensity (ln)"],
 "data": [
  ["TATATGGAGAGATATGCACACTGTATGAATGCCCCC [CACACA_site8853]", 10.3],
  ["ATATCACATATATATATATATATATATATATATATA [XGTACX_negctrl_site463]", 9.95],
  ["TTATAATTTAATAAATGTACATAAATAATATACATA [XGTACX_site7271]", 8.26],
  ["ATATATATATATAATGCACACATTATGAATTATGTA [CACACA_site3384]", 9.98],
  ["ATTCTAATCATATACACACCCATATATATATATATA [CACACA_site1774]", 10.3],
  ["TATATATATATATATGCATGTACATATATTTGTTAT [TGCATGCA_site379]", 10.3],
  ["TACACCCACCCACATACACACACATACACATATATA [CACACA_site8503]", 9.33],
  ["ATAAAATTTTATATGGGTACATAATATAATATATAT [XGTACX_site8160]", 8.84],
  ["ATATATATATATATATGTACTCATATTTTATTATTT [XGTACX_site898]", 10.1],
  ["ATTTAAAAAAAAAAAAAAAAAAAAAAAAAAAGAAAA [CACACA_negctrl_site722]", 8.01]
]}

Query: Requested read-out: gcPBM binding intensity (ln). Entry: AGTATACACAGACACACACACACATATATATATATA [CACACA_site8510]
Result: 10.2

Query: # iterate: TTATTTATTTATTGTTGTACACAAAATGATTCTTAA [XGTACX_site6480]
Result: 8.7

Query: # iterate: AAATAATTTACTTAATGTACATATATATATATATAT [XGTACX_site8594]
Result: 10.6

Query: # iterate: CATATACATACACATACACACATACAGACATACACA [CACACA_site6919]
Result: 8.69

Query: # iterate: TACATACACAGACACACACACATATATATATATATA [CACACA_site3557]
Result: 10.2

Query: # iterate: TATATATATATATTATGTACTCATTTATTATCTTTT [XGTACX_site8051]
Result: 9.97

Query: # iterate: AATATAACTTAGAATTGTACATAAAAAAAAATATAT [XGTACX_site3313]
Result: 8.68

Query: # iterate: ATATATATATATATATGTACATAAATATTTTAAAAT [XGTACX_site4980]
Result: 10.3

Query: # iterate: ATATATATATATGCATGTACATATATTTGTTATATC [XGTACX_site3197]
Result: 9.82

Query: # iterate: ATTAAAATCATATACACACCCATATATATATATATA [CACACA_site5050]
Result: 10.1

Query: # iterate: CATATTAATATTATGGGTACATATAAATTTACATTC [XGTACX_site687]
Result: 8.64

Query: # iterate: ATATATATATATATATGTACTAAATATTCATCCTTA [XGTACX_site6039]
Result: 10.2

Query: # iterate: TACACATACAGACATACACACATACACATATACACA [CACACA_site6918]
Result: 8.66

Query: # iterate: TATACAGACAGACACACACACATATATATATATATA [CACACA_site1734]
Result: 10.1

Query: # iterate: AAAAAAAAAACACACACATGCACATCATATTATATA [TGCATGCA_site133]
Result: 8.72

Query: # iterate: CATACATACAGACACACACACATATATATATATATA [CACACA_site2920]
Result: 10.1

Query: # iterate: TAATTAATAATAATATGTACATATTAATATATTATT [XGTACX_site6900]
Result: 8.29

Query: # iterate: AACACATACAGATATGCACACATTTTATTCCATTAT [CACACA_site5565]
Result: 8.84

Query: # iterate: TAATTAAAATCATATACACACCCATATATATATATA [CACACA_site8524]
Result: 10

Query: # iterate: ACAACATATGTTATCACACACATATAAATATAAATA [CACACA_site7038]
Result: 8.41
